system: cystinotic human fibroblasts; experiment: Cystine depletion assay; assay type: cell-based; conditions: Homo sapiens, Fibroblast, 1 h; Table 5; relative to cystine depletion by cysteamine (100%) at a similar concentration; read-out: Cystine Depletion (%) Mean Value
Emax: recorded values
Form field: result (number plus unit)

Completed entries (count: 2):
>  <compound>
CCN(CC)C(=S)SSC(=S)N(CC)CC

>  <Emax>
25%

$$$$
>  <compound>
NC1CCCC(S)C1 (stereo not drawn)

>  <Emax>
81%

$$$$

Please find the next compound below.
Lookup: Sample SCC1COCCN1 (stereo not drawn) — what was its Emax?
Found: 61%

* * *

experiment: Rodent pharmacokinetic assay (rat); format: in vivo; conditions: plasma, 2 and 10 mg free base equivalents per kg, intravenous and oral gavage, read-out: Rat PK-Half life (converted)
observationType: half-life
Write the numeric value and append its unit.

Lookup: Which half-life is reported for this compound? CN1CCC(S)CC1 [Compound 2d]
Found: 2.3 h
